B1: TPR 5TU (parent)
chain: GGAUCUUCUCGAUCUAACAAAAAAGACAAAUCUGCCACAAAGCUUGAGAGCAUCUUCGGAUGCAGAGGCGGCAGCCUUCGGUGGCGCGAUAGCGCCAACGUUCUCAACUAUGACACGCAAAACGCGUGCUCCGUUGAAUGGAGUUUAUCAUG

Variants of: B1
assayText: polymerase ribozyme fitness, log enrichment relative to wild type (log ratio); higher = more active; in vitro selection for triplet polymerase activity
Fewer inactive variants are shown than the library holds.
measuredEndpoint: polymerase ribozyme fitness (log ratio)
Answers are plain numbers.

The examples below pair each entry with its known result.
- mutationString: "A24U G84A G94U C96A A121U G126U U135A"
  polymerase ribozyme fitness (log ratio): -4.1
- mutationString: "A37G A47G U101C"
  polymerase ribozyme fitness (log ratio): -2.53
- mutationString: "U56G G81A U104C U145C"
  polymerase ribozyme fitness (log ratio): -1.47
- mutationString: "C118G A142G"
  polymerase ribozyme fitness (log ratio): -1.54

Each of the following entries comes with a recorded value; kindly state polymerase ribozyme fitness (log ratio) for each.
1. G83A A147C
2. U56C C93U C114G A119G
3. C27U C75U
4. C38U G59A A60C
5. U56G G84A A91G A115G
6. C95U G141U

Output:
[0.0173, -3.79, -1.25, -1.48, -4.1, 0.762]

Please go through the list and note polymerase ribozyme fitness (log ratio) for each variant.
1. C51U C87U C103A C116A
2. A66G C96U
3. C38U A120U A142U

Output:
1: -2.08; 2: -3.66; 3: -0.329

Task: GET /values?readout=polymerase ribozyme fitness (log ratio)&item= A20G G48A A119C A121U G136U
Output: -3.51
